Molecular target: T1, Human Siglec 5, Fc chimera (R&D Systems) (human, UniProt O15389 17-434, limits assumed)
T1 construct: Bought or recombinant Fc fusion; also called recombinant Siglec-5-Fc; not shown: Fc part
T1 sequence: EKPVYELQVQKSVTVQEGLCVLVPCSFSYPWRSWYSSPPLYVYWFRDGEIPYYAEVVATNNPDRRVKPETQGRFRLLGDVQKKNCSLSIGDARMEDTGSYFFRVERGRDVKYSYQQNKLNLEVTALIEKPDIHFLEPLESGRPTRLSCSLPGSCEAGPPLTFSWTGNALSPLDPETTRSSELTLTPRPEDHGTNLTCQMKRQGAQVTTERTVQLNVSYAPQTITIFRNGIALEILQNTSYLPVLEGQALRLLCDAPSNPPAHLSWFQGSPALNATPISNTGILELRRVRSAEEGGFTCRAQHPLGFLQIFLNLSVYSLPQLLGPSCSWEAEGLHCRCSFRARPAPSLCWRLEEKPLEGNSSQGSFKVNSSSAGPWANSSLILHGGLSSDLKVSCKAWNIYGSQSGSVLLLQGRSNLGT
Test: RBC adhesion to plate-bound Siglec-5-Fc, 1.0 ug/ml mAb, percent of binding without antibody
Measured parameter: Percent RBC Binding to Siglec-5 (%)
Numeric only. Scale: %

Example entries and their recorded answers appear below.
- Binder: "anti-Siglec-5 monoclonal antibody 8A1 (antibody, IgG1, V domains shown) VH: EIQLQQSGPELVKPGASVKVSCKASDYAFTSYNIYWVKQSHGKSLEWIGYIDPYNGGTSYNQTFKGKATLTVDKSSSTAYMHLNSLTSEDSAVYYCAMKVGYEAMDYWGQGTSVTVSS VL: DIVMTQSQKFMSTSVGDRVSVTCKASQNVGTYVAWYQQKPGQSPKALIYSASYRYSGVPDRFTGSGSGTDFTLNISNVQSEDLAEYFCQQFNSYPYTFGGGTKLEIK"
  Percent RBC Binding to Siglec-5, %: 8
- Binder: "anti-Siglec-5 monoclonal antibody 7A5 (antibody, IgG1, V domains shown) VH: EIQLQQSGPELVKPGASVKVSCKASGYSFTDYNMYWVKQSHGKSLEWIGYIDPYNGGTTYNQKFKGKATLTVDKSSSTAFMHLNSLTSEDSAVFYCAFYYGYYGVPYWGQGTLVTVSA VL: DIVMIQSQKFMSTSVGDRVSVTCKASQNVDTNVAWYQQKPGQSPKALIYSASYRYSGVPDRFTGSGSGTDFTLTISNVQSEDLAEYFCQQYNSFPLTFGSGTKLEIK"
  Percent RBC Binding to Siglec-5, %: 6.86

The record that follows has no Percent RBC Binding to Siglec-5 shown yet.
[in] Note down Percent RBC Binding to Siglec-5 recorded for anti-Siglec-5 monoclonal antibody 10F9 (antibody, IgG1, V domains shown) VH: EIQLQQSGPELVKPGASVKVSCKASGYSFTGYNMYWVKQSHGKSFEWIGYIDPYTGGTSYNQRFKGKATLTVDKSSSTAFMHLNSLTSEDSAIYYCALFYDYDGFPYWGQGTLVTVSA VL: DIVMTQSQKFMSTSVGDRVSVTCKASQNVDTNVAWYQQKPGQSPKALIYSASYRYSGVPDRFTGSGSGTDFTLTISNVQSEDLAEYFCQQYNSYPYTFGGGTKLEIK
[out] 6.22
